# ASSAY_TARGET: Arginase-2, mitochondrial (Homo sapiens) (UniProt P78540)
# Sequence (P78540 whole entry): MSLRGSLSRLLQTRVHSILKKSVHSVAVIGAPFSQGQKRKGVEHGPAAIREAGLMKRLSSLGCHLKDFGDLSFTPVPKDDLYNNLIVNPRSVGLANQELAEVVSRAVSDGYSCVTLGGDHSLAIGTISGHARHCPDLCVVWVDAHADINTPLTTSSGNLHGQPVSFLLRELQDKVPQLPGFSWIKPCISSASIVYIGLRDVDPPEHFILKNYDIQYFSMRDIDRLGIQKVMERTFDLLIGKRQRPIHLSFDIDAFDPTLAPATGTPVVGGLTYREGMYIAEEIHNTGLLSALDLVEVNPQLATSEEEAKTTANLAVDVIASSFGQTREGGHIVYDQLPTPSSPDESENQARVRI
# METHOD_SUMMARY: in vitro enzyme assay to detect the production of urea directly proportional to the activity of Arginase II; also: in the data most compounds retested in dose-response had high values
# Format: functional
# Set-up: scale not given: direction of the effect not stated beside the values
# PARTICULARS: 33.3 µM
PROPERTY_LABEL: Percent Effect

COMPOUND	REPORTED_RESULT
O=C(c1cccc(CNCC2CNc3ccnn3C2)c1)N1CCCC1 (stereo not given)	-4.09%
Cc1nn(C)c(C)c1CCC(=O)N1CCCC1Cn1cccn1 (stereo not given)	2.08%
CC(C)Oc1cccc(C(O)CNC(=O)CCc2ccncc2)c1 (stereo not given)	-7.58%
CNS(=O)(=O)c1cccc(CNc2cc(C(F)(F)F)ccn2)c1	5.21%
O=C(COc1coc(CN2CCOCC2)cc1=O)c1ccc(Cl)cc1	-11.8%
CN(CC1(O)CCCN(CCC2CCCCC2)C1=O)C1CCOCC1 (stereo not given)	6.77%
O=C(c1cc[nH]n1)N1CCCC1C1CCN(Cc2ccccc2)CC1 (stereo not given)	1.18%
CN(Cc1cscn1)C1CCCN(Cc2noc(C3CC3)n2)C1 (stereo not given)	0.36%
CN1CCCCC1c1ncc2c(n1)CCN(Cc1ccccc1Cl)C2 (stereo not given)	2.56%
O=C(NC1CC1)c1ccc2ccc(N3CCN(CC4CC4)CC3)n2c1	-1.37%

###

# ASSAY_TARGET: Protein translocase subunit SecA (Escherichia coli (strain K12))
# METHOD_SUMMARY: Assay to Identify E. coli SecA ATPase Inhibitors
# Type: functional
# Set-up: scale not given: direction of the effect not stated beside the values
# PARTICULARS: 30 µM
Results with a measured potency or affinity are listed apart.

MOLECULE	Percent Effect (%)
CN(Cc1ccc(C#N)cc1)Cc1noc(C(C)(C)C)n1	-3.57
CC(O)CN1CCN(C(=O)c2ccc(Cn3cccc3)cc2)CC1 (centres undefined)	-2.39
CNC(=O)[C@H]1C[C@@H]2CN(C(=O)c3cscn3)C[C@@H]2N1S(C)(=O)=O	-2.22
CC(Cc1ccco1)NC(=O)Nc1ccc(N2CCOCC2)nc1 (centres undefined)	-3.25

###

# Tested on: Trypanosoma cruzi
# METHOD_SUMMARY: Trypanosoma cruzi phosphomannomutase and mannose-1-phosphate guanylyltransferase assay
# Format: functional
# Set-up: scale not given: direction of the effect not stated beside the values
# PARTICULARS: 10 µM

COMPOUND	Percent Effect / %
COc1ccccc1N1CCC(CNCc2cccc(O)c2)C1 (centres undefined)	1.6
CCOC(CC)C(=O)NCCC(=O)N1CCN(c2ccccn2)CC1 (centres undefined)	3.99
CN(Cc1ccc(F)cc1)C(=O)NCc1nnc2n1CCCCC2	10.5
O=C(Cc1ccc2c(c1)OCO2)N1CCCN(c2ccccc2)CC1	0.992
Cc1ncc2c(n1)CCN(C(=O)Cc1c(C)noc1C)C2	9.62
Cc1nc(C2CCCN(C(=O)c3cccc(S(C)(=O)=O)c3)C2)no1 (centres undefined)	-1.95
CCS(=O)(=O)N1CCC(c2nc3ccc(-c4ccccc4)cn3n2)CC1	5.75
CC(C)OCCCN1CCCC(c2nc3ccccc3n2C(C)C)C1 (centres undefined)	3.32
O=c1[nH]c2c(c(=O)n1C1CCCCC1)CCC2Nc1ccccc1 (centres undefined)	0.393
CN(Cc1ccc(F)cc1)CC1(O)CCCN(CC(C)(C)C)C1=O (centres undefined)	3.79
COc1ccc(CS(=O)(=O)CC(=O)NCC2CC2)cc1F	1.66
Cc1cnc2n(c1=O)CC(C(=O)Nc1ccccc1Cl)CS2 (centres undefined)	-2.94
Cn1cc(CN2CCC3(C2)CN(Cc2ccsc2)C3)cn1	3.64
Cc1cnn(CCNCc2csc(C)n2)c1	-0.876
COc1cc(N2C[C@@H]3COC[C@]3(COc3cccnc3)C2)ncn1	5.38
CC(C)(C)N1CC(C(=O)N2CCN(CCn3cccc3)CC2)CC1=O (centres undefined)	4.97
CCOc1ccccc1C(CC(=O)Nc1ccc(C)cn1)NC(C)=O (centres undefined)	6.77
CCCNC(=O)CN1CCC(C(=O)Nc2cnn(CC)c2)CC1	-5.13
COCCNC(=O)CCc1c(C)nn(-c2nc(C)c(C)c(=O)[nH]2)c1C	-7

###

Quick list: Percent Effect per entry.
# ASSAY_TARGET: Arginase-2, mitochondrial (Homo sapiens) (UniProt P78540)
# METHOD_SUMMARY: in vitro enzyme assay to detect the production of urea directly proportional to the activity of Arginase II; also: in the data most compounds retested in dose-response had high values
# Type: functional
# Parameters: scale not given: direction of the effect not stated beside the values
# PARTICULARS: 33.3 µM
PROPERTY_LABEL: Percent Effect (%)

COMPOUND	UNITS	REPORTED_RESULT
O=C(c1ccn(-c2cccc(Cl)c2)n1)N1CCN(C2CC2)CC1	%	-1.78
Cc1nn(C)c(Cl)c1C1CCCN1CCc1ccccn1 (stereo not given)	%	7.53
CCc1nc(CN2CCCN(c3nccs3)CC2)no1	%	1.78
Cc1cc(C)n(CC2CN(CCOc3cccc(F)c3)CCO2)n1 (stereo not given)	%	-3.24
O=C(c1cnoc1)N1CCC[C@]2(C[C@H](Oc3ncccc3F)CO2)C1	%	-5.59
CN(C(=O)NCCCN1CCCC1)C1CCN(c2ccccc2)C1=O (stereo not given)	%	0.766
COc1ncccc1C(=O)N1CCC(c2nnc(C3CC3)o2)CC1	%	16.1
Cc1nnc2n1CCN(C(=O)c1cc(Cl)c[nH]1)C2	%	1.92
Cc1ccc(NC(=O)NC(C)C(=O)N2CCS(=O)(=O)CC2)cc1 (stereo not given)	%	-11.9
CCc1nsc(NC2CCCn3nc(CC)nc32)n1 (stereo not given)	%	6.25
COCCCN1CCCN(C(C)C(=O)Nc2ccnn2C(C)C)CC1 (stereo not given)	%	2.08
CC(C)N(C)Cc1cnc2n1CCN(C(=O)NC1CCCC1)C2	%	3.96
CC(=O)N1CC(=O)N(c2cnn(C)c2)CC12CCN(Cc1ccsc1)C2 (stereo not given)	%	-1.25
CCN(CC1CN(CCc2ccccn2)CCO1)c1cccnn1 (stereo not given)	%	3.12
CC(=O)NCC1CCN(CC2CCOc3ccccc3C2)CC1 (stereo not given)	%	9.27
c1ccc(OCC2CC3(CCN(c4ncccn4)CC3)CO2)nc1 (stereo not given)	%	-5.46
O=C(c1ccncc1)N1Cc2ccccc2OC2(CCOCC2)C1	%	-5.8
O=C(NCC1CC1)Nc1cnc2cc(Cl)ccc2c1O	%	-1.62
CCn1cc(CN2CCCn3nc(CCC(=O)NCCO)cc3C2)cn1	%	0
CCN1CCC(CNC(=O)NCc2cc(-c3ccc(C)cc3)no2)C1 (stereo not given)	%	-3.14
c1ccc(C2CCCN2Cc2nnnn2C2CC2)cc1 (stereo not given)	%	-1.32
Cc1nc(CN2CCn3cc(CNC(=O)C4CCC4)nc3C2)cs1	%	-45.3
O=C(Cc1csc(-c2ccco2)n1)N1CCN(c2cnccn2)CC1	%	-1.94
Cc1ccc(NC2CCN(C(=O)COc3cccnc3)CC2)nn1	%	-1.94
Cc1noc(C)c1-c1cncc(C2CCCN2Cc2ccncc2)n1 (stereo not given)	%	0.696

###

# ASSAY_TARGET: Chromo domain-containing protein 1 (Saccharomyces cerevisiae (strain ATCC 204508 / S288c) (Baker's yeast)) (UniProt P32657)
# Sequence (P32657 whole entry, the tested form may be a part): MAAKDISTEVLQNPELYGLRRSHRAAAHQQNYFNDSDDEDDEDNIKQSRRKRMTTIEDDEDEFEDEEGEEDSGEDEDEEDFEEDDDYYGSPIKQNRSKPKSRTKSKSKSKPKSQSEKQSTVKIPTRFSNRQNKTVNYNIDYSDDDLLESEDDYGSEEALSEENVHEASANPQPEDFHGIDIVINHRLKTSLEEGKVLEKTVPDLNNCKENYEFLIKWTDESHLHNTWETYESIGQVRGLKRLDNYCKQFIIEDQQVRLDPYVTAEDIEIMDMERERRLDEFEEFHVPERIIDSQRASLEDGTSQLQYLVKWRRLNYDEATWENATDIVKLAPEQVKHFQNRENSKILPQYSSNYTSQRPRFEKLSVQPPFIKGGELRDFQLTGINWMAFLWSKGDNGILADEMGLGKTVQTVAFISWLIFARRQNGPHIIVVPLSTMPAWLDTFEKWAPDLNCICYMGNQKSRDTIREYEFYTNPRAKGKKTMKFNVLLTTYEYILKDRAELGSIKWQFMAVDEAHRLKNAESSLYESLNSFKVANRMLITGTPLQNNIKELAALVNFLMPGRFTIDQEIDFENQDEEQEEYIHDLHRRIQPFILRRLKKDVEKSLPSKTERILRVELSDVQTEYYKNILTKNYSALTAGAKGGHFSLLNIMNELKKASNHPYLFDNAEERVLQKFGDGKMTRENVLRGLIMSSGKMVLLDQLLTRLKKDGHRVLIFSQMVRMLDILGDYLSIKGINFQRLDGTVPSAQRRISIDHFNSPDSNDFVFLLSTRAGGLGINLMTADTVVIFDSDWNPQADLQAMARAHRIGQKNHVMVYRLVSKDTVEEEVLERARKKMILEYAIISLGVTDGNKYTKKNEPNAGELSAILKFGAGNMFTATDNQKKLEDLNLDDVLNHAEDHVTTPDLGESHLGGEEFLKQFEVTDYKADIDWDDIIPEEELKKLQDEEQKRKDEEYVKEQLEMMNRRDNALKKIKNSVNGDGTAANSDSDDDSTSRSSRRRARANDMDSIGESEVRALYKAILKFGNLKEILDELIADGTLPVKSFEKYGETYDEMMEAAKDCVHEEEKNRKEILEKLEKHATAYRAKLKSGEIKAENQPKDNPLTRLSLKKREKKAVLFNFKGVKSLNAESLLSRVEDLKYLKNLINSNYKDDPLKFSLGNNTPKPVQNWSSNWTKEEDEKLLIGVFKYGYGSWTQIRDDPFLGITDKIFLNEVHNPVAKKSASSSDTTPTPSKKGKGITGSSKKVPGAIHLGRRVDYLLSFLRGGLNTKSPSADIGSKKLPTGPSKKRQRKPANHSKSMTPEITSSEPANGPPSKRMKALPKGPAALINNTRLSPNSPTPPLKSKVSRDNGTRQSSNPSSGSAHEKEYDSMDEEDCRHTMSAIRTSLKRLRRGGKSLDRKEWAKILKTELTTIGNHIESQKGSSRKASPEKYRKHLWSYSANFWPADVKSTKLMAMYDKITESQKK
# METHOD_SUMMARY: ScCHD-1 Enzyme Inhibition Assay; also: in the data most compounds retested in dose-response had high values
# Format: functional
# Set-up: scale not given: direction of the effect not stated beside the values
# PARTICULARS: 30 µM
// reported Percent Effect for each item listed

COMPOUND	Percent Effect
O=C(NCC1CC1)[C@H]1C[C@@H]2CN(S(=O)(=O)Cc3ccccc3)C[C@H]1O2	-3.45%
CCN1CCC(CNCc2cc(OC)ccc2OC)C1 (stereo unspecified)	-0.855%
O=C(Nc1cnccn1)[C@H]1COC[C@H]2CN(C3CCCC3)C[C@H]21	-1.78%
CN(CCN1CCCCCC1)C(=O)c1cc(CN2CCC(O)CC2)on1	-2.4%
CCOc1cc(CN(C)CCOC)ccc1OC(F)F	0.485%
CC1c2ncc(COc3cccnc3)n2CCN1C(=O)C1=CCCC1 (stereo unspecified)	-7.55%
O=S1(=O)C[C@@H]2[C@H](C1)N(Cc1cc(Cl)cc(Cl)c1)CCN2CC1CC1	-6.73%
CCc1nnsc1C(=O)N1CCCN(Cc2nccn2C)CC1	-8.53%
CCC1CCCN(C(=O)Cc2csc(-c3ncccn3)n2)C1 (stereo unspecified)	-12.4%
Cc1cnn(CC2CCCN2C(=O)c2ccc3[nH]nnc3c2)c1 (stereo unspecified)	-4.85%
Cc1nnc2n1CCN(C(=O)c1cc(C)n(-c3ccccn3)c1C)C2	2.79%
CCc1noc(C2CCCCN2C(=O)c2ccn(C3CCCC3)n2)n1 (stereo unspecified)	-15.7%
Cc1ccc2c(c1)C1(CCNCC1)CN2C(=O)CN(C)C	-2.47%
Cc1ccc(C(=O)Nc2cn[nH]c2)cc1C	-9.31%
Cc1cccc(C(=O)N2C[C@@H]3CCN(c4cccnc4)C[C@@H]3C2)c1	-3.21%
CC(C)C(=O)NCC(=O)N(C)C1CCCN(C2Cc3ccccc3C2)C1 (stereo unspecified)	-2.54%
COCc1ccc(CNC(=O)C2=NN(c3ccccc3)C(=O)CN2)cc1	-4.43%
CCC(O)CN1CCN(C(=O)c2cccn2Cc2cccs2)CC1 (stereo unspecified)	-5.26%
CC(NC(=O)NCCN1CCCCCC1=O)c1nncn1C (stereo unspecified)	-6.06%
C[C@H](O)CNC(=O)c1cnc(-c2ccccc2)nc1O	-9.28%
c1ccc(-c2noc(CN3CCc4cncnc4C3)n2)nc1	-10.6%
Cc1ccc(C2CSCCN2C(=O)c2ccc(C(N)=O)cc2)o1 (stereo unspecified)	-2.9%
CCc1nc(CN(C)C2CCN(Cc3cnc(C)cn3)C2)no1 (stereo unspecified)	-17%
Cn1cc(C2CCCN2C(=O)CCCOc2ccc(F)cc2F)cn1 (stereo unspecified)	-1.53%
Cc1nn(C)c2c(N3CCN(C(=O)c4ccccc4)CC3)ncnc12	-10.3%
O=C(CCc1nc2cccnc2[nH]1)NCc1cccnc1	-10.2%
CN(C)CC(=O)N1CCOCC2(C1)CN(c1ccccc1)C(=O)CO2 (stereo unspecified)	-7.95%
c1cc(OCc2ccc3c(c2)OCCO3)ccc1CNC1CC1	-5.94%
O=C(NCc1ccccc1CN1CCC(O)CC1)Nc1ccncc1	-3.29%
O=C(NCCc1cccc(O)c1)NC1CCN(c2ccccc2)C1=O (stereo unspecified)	-4.31%
O=C(NCCN1CCOCC1)c1n[nH]c(=O)c2ccccc12	-9.16%
CCc1nc(NS(=O)(=O)c2ccc(C)cc2Cl)no1	-1.19%
c1cnnc(NCC2CN(Cc3cccc4c3OCCO4)CCO2)c1 (stereo unspecified)	-7.39%
Cc1cccc(-c2noc(CN3CCC(N4CCNC4=O)CC3)n2)c1	-3.52%
CC(C)NC(=O)NCCCc1cc(N)n(-c2ccccc2)n1	-8.17%
N#Cc1ccc(C(=O)N2CCC3(CC2)C(=O)Nc2ccccc23)cn1	-4.78%
